# target-or-test-system: Nitric oxide synthase 1 (Rattus norvegicus, UniProt P29476)
# Sequence (P29476 whole entry): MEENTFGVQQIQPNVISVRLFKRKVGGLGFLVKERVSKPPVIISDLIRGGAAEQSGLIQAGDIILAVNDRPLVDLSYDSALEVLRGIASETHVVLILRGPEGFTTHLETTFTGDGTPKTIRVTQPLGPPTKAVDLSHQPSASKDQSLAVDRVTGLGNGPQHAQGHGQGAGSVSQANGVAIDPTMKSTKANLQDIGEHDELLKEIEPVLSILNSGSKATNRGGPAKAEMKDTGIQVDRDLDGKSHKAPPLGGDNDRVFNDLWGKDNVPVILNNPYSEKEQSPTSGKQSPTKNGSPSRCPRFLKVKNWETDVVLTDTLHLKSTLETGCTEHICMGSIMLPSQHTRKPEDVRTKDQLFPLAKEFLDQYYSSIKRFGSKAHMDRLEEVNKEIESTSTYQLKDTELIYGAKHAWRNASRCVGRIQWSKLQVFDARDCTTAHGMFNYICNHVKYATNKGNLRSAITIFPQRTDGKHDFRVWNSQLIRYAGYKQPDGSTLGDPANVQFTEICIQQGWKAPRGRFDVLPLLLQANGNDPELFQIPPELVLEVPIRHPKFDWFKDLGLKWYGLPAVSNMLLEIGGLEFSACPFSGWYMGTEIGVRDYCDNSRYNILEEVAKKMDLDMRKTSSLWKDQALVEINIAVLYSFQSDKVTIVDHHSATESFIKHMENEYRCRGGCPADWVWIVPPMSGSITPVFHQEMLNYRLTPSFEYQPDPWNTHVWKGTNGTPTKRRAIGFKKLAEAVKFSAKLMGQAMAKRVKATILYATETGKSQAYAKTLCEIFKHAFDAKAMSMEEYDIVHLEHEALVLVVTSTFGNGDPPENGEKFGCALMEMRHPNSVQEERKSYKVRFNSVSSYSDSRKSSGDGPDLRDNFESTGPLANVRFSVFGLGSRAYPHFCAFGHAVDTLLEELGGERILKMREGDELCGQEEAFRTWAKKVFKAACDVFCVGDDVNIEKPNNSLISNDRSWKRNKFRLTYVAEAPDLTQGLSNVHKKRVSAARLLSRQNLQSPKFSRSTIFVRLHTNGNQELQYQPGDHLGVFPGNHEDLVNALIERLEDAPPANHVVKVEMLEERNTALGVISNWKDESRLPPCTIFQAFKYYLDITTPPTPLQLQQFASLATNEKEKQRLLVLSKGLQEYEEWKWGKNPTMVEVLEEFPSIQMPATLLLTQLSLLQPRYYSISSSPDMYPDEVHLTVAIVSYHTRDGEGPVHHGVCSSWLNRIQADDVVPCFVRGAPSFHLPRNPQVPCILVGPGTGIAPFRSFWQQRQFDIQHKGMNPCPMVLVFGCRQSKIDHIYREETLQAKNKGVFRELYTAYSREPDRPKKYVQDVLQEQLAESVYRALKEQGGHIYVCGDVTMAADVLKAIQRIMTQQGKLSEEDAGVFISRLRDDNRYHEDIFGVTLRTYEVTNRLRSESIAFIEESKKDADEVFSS
# protocol: Inhibition of recombinant rat brain nNOS expressed in Escherichia coli

substance-smiles: NCC[C@@H](O)C[C@@H](N)CCCN=C(N)N[N+](=O)[O-]
Ki, nM: 1100
--
substance-smiles: N=C(NCCC[C@H](N)C[C@H](O)CCCN)N[N+](=O)[O-]
Ki, nM: 830
--
substance-smiles: NCCC[C@H](O)C[C@@H](N)CCCN=C(N)N[N+](=O)[O-]
Ki, nM: 2800
--
substance-smiles: N=C(NCCC[C@H](N)C[C@@H](O)CCN)N[N+](=O)[O-]
Ki, nM: 290
